targetOfAssay: T1, HLA-DR15 (DRB1*1501), purified (human)
T1 construct: mature
methodSummary: competition on purified HLA-DR (DRB1*1501) against biotinylated A3 152-166 (10 nM, pH 4.5); fluorescence assay
readoutLabel: IC50 (nM)
Give the value, in units of nM, as a plain number.

Tell us which IC50 value is on record for ACYEFLWGPRALVETS [peptide MAGE-3 267-282 (ACYEFLWGPRALVETS)]
220
